Where these numbers come from: paper PMC9841523

test system: 4EBP1 T37/T46 phosphorylation (mTORC1); assay: AlphaLISA/MSD analysis of 4EBP1 phosphorylation in MDA-MB-468 cells; assay type: cell-based; conditions: Homo sapiens; MDA-MB-468 cells; read-out: p4EBP1 IC50
# pIC50 values compiled below
# pIC50 = -log10(concentration in molar units)

[[record]]
compound = "CO[C@H]1C[C@@H]2CC[C@@H](C)[C@@](O)(O2)C(=O)C(=O)N2CCCC[C@H]2C(=O)O/C([C@H](C)C[C@@H]2CC[C@@H](OC(=O)NCCOCCOCCOCCOCCOCCOCCOCCOCCC(=O)N3CCc4cc(Cn5nc(-c6ccc7oc(N)nc7c6)c6c(N)ncnc65)ccc4C3)[C@H](OC)C2)=C/C(=O)[C@H](C)/C=C(\\C)[C@@H](O)[C@@H](OC)C(=O)[C@H](C)C[C@H](C)/C=C/C=C/C=C/1C [compound 33]"
observed_value = 6.49


Moving on to the next compound.
Kindly state the measured pIC50 obtained for COc1ccc(-c2ccc3ncc4c(c3c2)n(-c2ccc(N3CCN(C(=O)CCOCCOCCOCCOCCOCCOCCn5cc(CCCCO[C@@H]6CC[C@@H](C[C@@H](C)[C@@H]7CC(=O)[C@H](C)/C=C(\C)[C@@H](O)[C@@H](OC)C(=O)[C@H](C)C[C@H](C)/C=C/C=C/C=C(\C)[C@@H](OC)C[C@@H]8CC[C@@H](C)[C@@](O)(O8)C(=O)C(=O)N8CCCC[C@H]8C(=O)O7)C[C@H]6OC)nn5)CC3)c(C(F)(F)F)c2)c(=O)n4C)cn1 [compound 26] with 4EBP1 T37/T46 phosphorylation (mTORC1).
10.10

* * *

system: 4EBP1 T37/T46 phosphorylation (mTORC1); assay: AlphaLISA/MSD analysis of 4EBP1 phosphorylation in MDA-MB-468 cells; type: cell-based; conditions: Homo sapiens; MDA-MB-468 cells; read-out: p4EBP1 IC50
test-readout: IC50
Give me the value, and tack the unit on after it.

[[record]]
molecule = "CO[C@H]1C[C@@H]2CC[C@@H](C)[C@@](O)(O2)C(=O)C(=O)N2CCCC[C@H]2C(=O)O[C@H]([C@H](C)C[C@@H]2CC[C@@H](OCCCCc3cn(CCOCCOCCOCCOCCOCCOCCOCCOCCC(=O)N4CCC(Cn5nc(-c6ccc7oc(N)nc7c6)c6c(N)ncnc65)CC4)nn3)[C@H](OC)C2)CC(=O)[C@H](C)/C=C(\\C)[C@@H](O)[C@@H](OC)C(=O)[C@H](C)C[C@H](C)/C=C/C=C/C=C/1C [compound 22]"
observed_value = "0.67 nM"

[[record]]
molecule = "CO[C@@H](C[C@@H]1CC[C@@H](C)[C@](O)(C(=O)C(=O)N2CCCC[C@H]2C(=O)O)O1)/C(C)=C/C=C/C=C/[C@@H](C)C[C@@H](C)C(=O)[C@H](OC)[C@H](O)/C(C)=C/[C@@H](C)C(=O)/C=C\\[C@H](C)C[C@@H]1CC[C@@H](OCCCCc2cn(CCOCCOCCOCCOCCOCCOCCOCCOCCC(=O)NCCCCn3nc(-c4ccc5oc(N)nc5c4)c4c(N)ncnc43)nn2)[C@H](OC)C1 [compound 32]"
observed_value = "180 nM"

[[record]]
molecule = "CO[C@H]1C[C@@H]2CC[C@@H](C)[C@@](O)(O2)C(=O)C(=O)N2CCCC[C@H]2C(=O)O[C@H]([C@H](C)C[C@@H]2CC[C@@H](OCCCCc3cn(CCOCCOCCOCCOCCOCCOCCOCCOCCC(=O)N4CCc5cc(Cn6nc(-c7ccc8oc(N)nc8c7)c7c(N)ncnc76)ccc5C4)nn3)[C@H](OC)C2)CC(=O)[C@H](C)/C=C(\\C)[C@@H](O)[C@@H](OC)C(=O)[C@H](C)C[C@H](C)/C=C/C=C/C=C/1C [compound 21]"
observed_value = "0.44 nM"

[[record]]
molecule = "CO[C@H]1C[C@@H]2CC[C@@H](C)[C@@](O)(O2)C(=O)C(=O)N2CCCC[C@H]2C(=O)O[C@H]([C@H](C)C[C@@H]2CC[C@@H](OCCCCc3cn(CCOCCOCCOCCOCCOCCOCCC(=O)NCCCCn4nc(-c5cnc6[nH]ccc6c5)c5c(N)ncnc54)nn3)[C@H](OC)C2)CC(=O)[C@H](C)/C=C(\\C)[C@@H](O)[C@@H](OC)C(=O)[C@H](C)C[C@H](C)/C=C/C=C/C=C/1C [compound 24]"
observed_value = "31 nM"


Next up:
Tell me the measured IC50 of COc1ccc(-c2ccc3ncc4c(c3c2)n(C)c(=O)n4-c2ccc(N3CCN(C(=O)CCOCCOCCOCCOCCOCCOCCOCCOCCn4cc(CCCCO[C@@H]5CC[C@@H](C[C@@H](C)[C@@H]6CC(=O)[C@H](C)/C=C(\C)[C@@H](O)[C@@H](OC)C(=O)[C@H](C)C[C@H](C)/C=C/C=C/C=C(\C)[C@@H](OC)C[C@@H]7CC[C@@H](C)[C@@](O)(O7)C(=O)C(=O)N7CCCC[C@H]7C(=O)O6)C[C@H]5OC)nn4)CC3)c(C(F)(F)F)c2)cn1 [compound 19] , please.
0.06 nM
